assay: Plasma concentration in human VCaP cells xenografted in SCID mouse at 20 mg/kg, po single dose measured after 6 hrs by LC-MS/MS analysis; assay type: ADME, organism-based
Give concentration at 6 h for every item shown.
Entry rule: numbers only, all in ng/mL.

Query: Tell me concentration at 6 h reported for CC1(C)[C@H](NC(=O)c2ccc(N3CCN(CC4CCN(c5ccc6c(c5)C(=O)N(C5CCC(=O)NC5=O)C6=O)CC4)CC3)cc2)C(C)(C)[C@H]1Oc1ccc(C#N)c(Cl)c1 (stereo partly drawn)
Response: 1510

Query: Read off the recorded concentration at 6 h for CC1(C)[C@H](NC(=O)c2ccc(N3CCN(C4CCN(c5ccc6c(c5)C(=O)N(C5CCC(=O)NC5=O)C6=O)CC4)CC3)cc2)C(C)(C)[C@H]1Oc1ccc(C#N)c(Cl)c1 (stereo partly drawn)
Response: 803

Query: Please report concentration at 6 h for the following molecule: CC1(C)[C@H](NC(=O)c2ccc(N3CCN(CC4CN(c5ccc6c(c5)C(=O)N(C5CCC(=O)NC5=O)C6=O)C4)CC3)cc2)C(C)(C)[C@H]1Oc1ccc(C#N)c(Cl)c1 (stereo partly drawn)
Response: 1360

====

Please provide measured Activity for the entries that follow.
target: Protein cereblon/Androgen receptor (Homo sapiens, UniProt P10275+Q96SW2); assay: Protac activity at CRBN/AR in human VCaP cells assessed as induction of AR degradation at 0.01 uM measured after 24 hrs by western blot analysis relative to control; format: cell-based
Sequence (P10275 whole entry, looked up): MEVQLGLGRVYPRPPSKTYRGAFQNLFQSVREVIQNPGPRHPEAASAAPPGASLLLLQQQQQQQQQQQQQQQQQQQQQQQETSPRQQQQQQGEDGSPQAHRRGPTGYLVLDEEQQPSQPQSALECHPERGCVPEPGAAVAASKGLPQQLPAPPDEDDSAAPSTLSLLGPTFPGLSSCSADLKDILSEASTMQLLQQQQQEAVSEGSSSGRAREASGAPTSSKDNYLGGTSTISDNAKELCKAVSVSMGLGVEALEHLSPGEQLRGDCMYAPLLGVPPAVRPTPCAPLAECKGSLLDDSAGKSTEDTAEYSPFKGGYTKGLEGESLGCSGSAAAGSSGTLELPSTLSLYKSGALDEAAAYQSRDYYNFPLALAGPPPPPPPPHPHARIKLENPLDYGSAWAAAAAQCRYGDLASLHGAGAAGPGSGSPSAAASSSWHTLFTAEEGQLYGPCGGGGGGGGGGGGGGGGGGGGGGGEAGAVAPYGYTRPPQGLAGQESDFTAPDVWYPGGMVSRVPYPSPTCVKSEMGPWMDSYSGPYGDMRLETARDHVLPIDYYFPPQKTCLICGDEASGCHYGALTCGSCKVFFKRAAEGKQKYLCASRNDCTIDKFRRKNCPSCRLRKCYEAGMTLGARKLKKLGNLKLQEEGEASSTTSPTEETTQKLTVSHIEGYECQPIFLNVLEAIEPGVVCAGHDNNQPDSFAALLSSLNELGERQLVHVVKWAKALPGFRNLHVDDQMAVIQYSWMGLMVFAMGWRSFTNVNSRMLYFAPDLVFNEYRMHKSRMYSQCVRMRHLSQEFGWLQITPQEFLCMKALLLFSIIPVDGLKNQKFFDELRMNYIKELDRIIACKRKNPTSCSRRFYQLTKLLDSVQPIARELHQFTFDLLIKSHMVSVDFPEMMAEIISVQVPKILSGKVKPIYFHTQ
Sequence (Q96SW2 whole entry, looked up): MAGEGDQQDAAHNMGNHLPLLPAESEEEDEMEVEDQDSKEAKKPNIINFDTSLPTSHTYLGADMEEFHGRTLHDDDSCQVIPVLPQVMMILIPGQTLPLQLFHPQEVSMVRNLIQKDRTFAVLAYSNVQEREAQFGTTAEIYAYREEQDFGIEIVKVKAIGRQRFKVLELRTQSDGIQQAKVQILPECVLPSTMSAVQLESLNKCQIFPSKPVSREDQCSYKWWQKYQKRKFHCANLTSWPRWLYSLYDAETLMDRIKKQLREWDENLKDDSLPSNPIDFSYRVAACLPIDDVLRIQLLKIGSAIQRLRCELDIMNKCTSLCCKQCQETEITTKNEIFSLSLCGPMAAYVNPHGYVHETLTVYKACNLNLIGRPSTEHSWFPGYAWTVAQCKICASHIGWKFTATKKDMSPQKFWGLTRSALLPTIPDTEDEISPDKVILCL
Express the result in % but write the number alone.

Query: Return value of Activity for input CC1(C)[C@H](NC(=O)c2ccc(N3CCN(CC4CC5(C4)CN(c4ccc6c(c4)C(=O)N(C4CCC(=O)NC4=O)C6=O)C5)CC3)cc2)C(C)(C)[C@H]1Oc1ccc(C#N)c(Cl)c1 (stereo partly specified) , no commentary.
Response: 82

Query: Look up and state reported Activity for CC1(C)[C@H](NC(=O)c2ccc(N3CCN(CCNc4cccc5c4C(=O)N(C4CCC(=O)NC4=O)C5=O)CC3)cc2)C(C)(C)[C@H]1Oc1ccc(C#N)c(Cl)c1 (stereo partly specified)
Response: 23

Query: State its Activity for this compound: CC1(C)[C@H](NC(=O)c2ccc(NCCCNc3ccc4c(c3)C(=O)N(C3CCC(=O)NC3=O)C4=O)cc2)C(C)(C)[C@H]1Oc1ccc(C#N)c(Cl)c1 (stereo partly specified)
Response: 25

Query: Read off the recorded Activity for CC1(C)[C@H](NC(=O)c2ccc(N3CCC4(CCC(Nc5ccc6c(c5)C(=O)N(C5CCC(=O)NC5=O)C6=O)CC4)CC3)cc2)C(C)(C)[C@H]1Oc1ccc(C#N)c(Cl)c1 (stereo partly specified)
Response: 30

Query: Please supply the value of reported Activity for the item CC1(C)[C@H](NC(=O)c2ccc(NCCCCCCCNc3ccc4c(c3)C(=O)N(C3CCC(=O)NC3=O)C4=O)cc2)C(C)(C)[C@H]1Oc1ccc(C#N)c(Cl)c1 (stereo partly specified)
Response: 58

Query: Report measured Activity; entry is CC1(C)[C@H](NC(=O)c2ccc(N3CCN(CCCCNc4cccc5c4C(=O)N(C4CCC(=O)NC4=O)C5=O)CC3)cc2)C(C)(C)[C@H]1Oc1ccc(C#N)c(Cl)c1 (stereo partly specified)
Response: 40

Query: Name the recorded Activity of the item CC1(C)[C@H](NC(=O)c2ccc(N3CCN(CCNc4ccc5c(c4)C(=O)N(C4CCC(=O)NC4=O)C5=O)CC3)cc2)C(C)(C)[C@H]1Oc1ccc(C#N)c(Cl)c1 (stereo partly specified) in your answer.
Response: 83

Query: Kindly indicate its recorded Activity. Item: CC1(C)[C@H](NC(=O)c2ccc(C(=O)N3CCN(CC4CN(c5ccc6c(c5)C(=O)N(C5CCC(=O)NC5=O)C6=O)C4)CC3)cc2)C(C)(C)[C@H]1Oc1ccc(C#N)c(Cl)c1 (stereo partly specified)
Response: 92

Query: Complete the entry with Activity for CC1(C)[C@@H](NC(=O)c2ccc(N3CCN(CC4CCN(c5ccc6c(c5)C(=O)N(C5CCC(=O)NC5=O)C6=O)CC4)CC3)cc2)C[C@@H]1Oc1ccc(C#N)c(Cl)c1 (stereo partly specified)
Response: 19

Query: Find the measured Activity of CC1(C)[C@H](NC(=O)c2ccc(N3CCN(CC4CCN(c5ccc6c(c5)C(=O)N(C5CCC(=O)NC5=O)C6=O)CC4)CC3)cc2)C(C)(C)[C@H]1Oc1ccc(C#N)c(F)c1 (stereo partly specified) and report it.
Response: 15

Query: Respond only with Activity recorded for CC1(C)[C@H](NC(=O)c2ccc(NCCCCNc3ccc4c(c3)C(=O)N(C3CCC(=O)NC3=O)C4=O)cc2)C(C)(C)[C@H]1Oc1ccc(C#N)c(Cl)c1 (stereo partly specified)
Response: 76

====

Would you mind telling me the reported Activity of each entry?
target: Protein cereblon/Androgen receptor (Homo sapiens, UniProt P10275+Q96SW2); assay: Protac activity at CRBN/AR in human VCaP cells assessed as induction of AR degradation at 0.1 uM measured after 24 hrs by western blot analysis relative to control; assay type: cell-based
Numbers only here, please. The scale is %.

Query: In one line, give reported Activity of the entry CC1(C)[C@H](NC(=O)c2ccc(C(=O)N3CCN(C4CN(c5ccc6c(c5)C(=O)N(C5CCC(=O)NC5=O)C6=O)C4)CC3)cc2)C(C)(C)[C@H]1Oc1ccc(C#N)c(Cl)c1 (stereo partly drawn) .
Response: 95

Query: Output Activity of CC1(C)[C@H](NC(=O)c2ccc(N3CCN(C4CN(c5ccc6c(c5)C(=O)N(C5CCC(=O)NC5=O)C6=O)C4)CC3)cc2)C(C)(C)[C@H]1Oc1ccc(C#N)c(Cl)c1 (stereo partly drawn)
Response: 91

Query: Look up Activity of CC1(C)[C@H](NC(=O)c2ccc(NCCCNc3ccc4c(c3)C(=O)N(C3CCC(=O)NC3=O)C4=O)cc2)C(C)(C)[C@H]1Oc1ccc(C#N)c(Cl)c1 (stereo partly drawn) and report it.
Response: 63

====

target: Protein cereblon/Androgen receptor (Homo sapiens, UniProt P10275+Q96SW2); assay: Protac activity at CRBN/AR in human VCAP cells assessed as induction of AR degradation at 1 uM by western blot analysis relative to control; assay type: cell-based; conditions: time 24.0 hrs
quantityKind: Activity (%)
Answer with a number only, understood to be in %.

Query: Give the reported value of Activity for this record: CC1(C)[C@H](NC(=O)c2ccc(N3CCN(CC4CCN(c5ccc6c(c5)C(=O)N(C5CCC(=O)NC5=O)C6=O)CC4)CC3)cc2)C(C)(C)[C@H]1Oc1ccc(C#N)c(C(F)(F)F)c1 (stereo partly specified)
Response: 90

Query: Identify Activity associated with the compound CC1(C)[C@H](NC(=O)c2ccc(NCCCCCCCNc3ccc4c(c3)C(=O)N(C3CCC(=O)NC3=O)C4=O)cc2)C(C)(C)[C@H]1Oc1ccc(C#N)c(Cl)c1 (stereo partly specified)
Response: 62

Query: Let me know recorded Activity for CC1(C)[C@H](NC(=O)c2ccc(NCCCCCCNc3ccc4c(c3)C(=O)N(C3CCC(=O)NC3=O)C4=O)cc2)C(C)(C)[C@H]1Oc1ccc(C#N)c(Cl)c1 (stereo partly specified) , thanks.
Response: 79

Query: Return Activity (reported value) for this compound: CC1(C)[C@H](NC(=O)c2ccc(N3CCN(CC4CC5(C4)CN(c4ccc6c(c4)C(=O)N(C4CCC(=O)NC4=O)C6=O)C5)CC3)cc2)C(C)(C)[C@H]1Oc1ccc(C#N)c(Cl)c1 (stereo partly specified)
Response: 95

Query: For the compound CC1(C)[C@H](NC(=O)c2ccc(N3CCN(C4CCC5(CC4)CCN(c4ccc6c(c4)C(=O)N(C4CCC(=O)NC4=O)C6=O)CC5)CC3)cc2)C(C)(C)[C@H]1Oc1ccc(C#N)c(Cl)c1 (stereo partly specified) , give its measured Activity value.
Response: 80

Query: Consider the compound N#Cc1ccc(O[C@H]2C[C@H](NC(=O)c3ccc(N4CCN(CC5CCN(c6ccc7c(c6)C(=O)N(C6CCC(=O)NC6=O)C7=O)CC5)CC4)cc3)C2)cc1Cl (stereo partly specified) . State its measured Activity.
Response: 39

Query: Report Activity for CC1(C)[C@H](NC(=O)c2ccc(N3CCN(CCCNc4cccc5c4C(=O)N(C4CCC(=O)NC4=O)C5=O)CC3)cc2)C(C)(C)[C@H]1Oc1ccc(C#N)c(Cl)c1 (stereo partly specified)
Response: 9

Query: Provide one value: measured Activity of CC1(C)[C@H](NC(=O)c2ccc(N3CCN(CCCCNc4ccc5c(c4)C(=O)N(C4CCC(=O)NC4=O)C5=O)CC3)cc2)C(C)(C)[C@H]1Oc1ccc(C#N)c(Cl)c1 (stereo partly specified)
Response: 82

Query: For the compound CC1(C)[C@H](NC(=O)c2ccc(NCCCCCNc3ccc4c(c3)C(=O)N(C3CCC(=O)NC3=O)C4=O)cc2)C(C)(C)[C@H]1Oc1ccc(C#N)c(Cl)c1 (stereo partly specified) , give its reported Activity.
Response: 97

Query: Read the entry CC1(C)[C@H](NC(=O)c2ccc(N3CCC4(CC3)CC(Nc3ccc5c(c3)C(=O)N(C3CCC(=O)NC3=O)C5=O)C4)cc2)C(C)(C)[C@H]1Oc1ccc(C#N)c(Cl)c1 (stereo partly specified) and write its reported Activity.
Response: 88

Query: Let me know recorded Activity for CC1(C)[C@H](NC(=O)c2ccc(N3CCN(CC4CCN(c5ccc6c(c5)C(=O)N(C5CCC(=O)NC5=O)C6=O)CC4)CC3)cc2)C(C)(C)[C@H]1Oc1ccc(C#N)c(F)c1 (stereo partly specified) , thanks.
Response: 80
